- Tested on: ERK3
- Construct: gene MAPK6
- conditionLabel: concentration: 1 μM, replicates: in singlicate; n = 1;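 further: KINOMEscan kinase panel screen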
readoutType: %Inh (%)
Answers are plain numbers, in %.

CCCCc1nn2ncccc2c1-c1ccnc(Nc2ccc(N3CCN(C)CC3)cc2)n1    46

Value sought for every listed compound: %Inh.
1. Clc1ccc(-c2nn3ncccc3c2-c2ccnc(Nc3ccc4c(c3)OCCO4)n2)cc1
2. C[C@@H]1CC[C@@H](C(=O)Nc2ccccc2)CN1c1cc(-c2ccc3c(N)n[nH]c3c2)nc(N)n1
3. COc1ccc(Nc2nccc(N3CCC(NC(=O)Nc4cccc(OC)c4)C3)n2)cc1 (stereo not shown)

Result:
1. 3
2. 0
3. 9

====

- Tested on: TGFBR2
- conditionLabel: concentration: 1 μM, replicates: in singlicate; n = 1
readoutType: %Inh (%)
Give bare numbers, in %.

Below are worked cases with known answers.
Oc1cc(Nc2ccnc3cc(I)ccc23)ccc1F    99.9
Cl.NC(=O)c1cccc(Nc2nccc(Nc3ccc(Oc4c(Cl)cccc4Cl)c(Cl)c3)n2)c1    29
Clc1ccc(-c2nn3ncccc3c2-c2ccnc(Nc3ccc4c(c3)OCCO4)n2)cc1    23
Cc1ccc(C)c(NC(=O)NC2CCN(c3ccnc(Nc4ccc(F)cc4)n3)C2)c1 (stereo not shown)    0
CC(=O)N1CCN(c2ccc(Nc3nccc(-c4sc(C(C)C)nc4-c4cccc(NS(=O)(=O)c5cccc(Cl)c5)c4)n3)cn2)CC1    79
O=C(Nc1cccc(-c2nn3ncccc3c2-c2ccnc(Nc3ccccc3)n2)c1)c1c(F)cccc1F    0

Value sought for every listed molecule: %Inh.
1. CCn1c(-c2nonc2N)nc2c(C#CC(C)(C)O)ncc(OCCCCN)c21.O=C(O)C(F)(F)F.O=C(O)C(F)(F)F
2. Cl.Cl.NCC(NC(=O)c1cc(-c2ccccc2)c(-c2ccnc3[nH]ccc23)s1)c1ccccc1 (stereo not shown)
3. CN(C)Cc1ccc(-c2ccc3c(Nc4ccc(Oc5ccccn5)cc4)ccnc3c2)o1

Result:
0
0
0

Value sought for every listed molecule: %Inh.
1. Cl.Cl.NCC(NCc1ccc(-c2ccnc3[nH]ccc23)s1)c1ccccc1 (stereo not shown)
2. O=C(Nc1cccc(-c2nn3ccccc3c2-c2ccnc(Nc3cccc(F)c3)n2)c1)c1c(F)ccc(F)c1Cl
3. O=C(Nc1n[nH]c2nc(-c3ccc(O)cc3)ccc12)C1CC1
4. O=C(NC1CCN(c2ccnc(Nc3ccc(F)cc3)n2)C1)c1cc2ccccc2s1 (stereo not shown)
5. COc1ccc(Nc2nccc(N3CCC(NC(=O)Nc4cccc(OC)c4)C3)n2)cc1 (stereo not shown)
6. CC(C)c1nc(-c2cccc(NS(=O)(=O)c3c(F)cccc3F)c2F)c(-c2ccnc(Nc3ccc(N4CCOCC4)nc3)n2)s1

Result:
1. 0
2. 19
3. 0
4. 0
5. 9
6. 77

Request: Form field: reported %Inh of Cn1cc(-c2ccc3c(c2)CCN3C(=O)Cc2cccc(F)c2)c2c(N)ncnc21
Result: 0

====

- Tested on: ALK
- conditionLabel: concentration: 1 μM, replicates: in singlicate; n = 1
readoutType: %Inh (%)
Answers are plain numbers, in %.

O=C(Nc1ccccc1F)NC1CCN(c2ccnc(Nc3ccc(F)cc3)n2)CC1    17
Cc1cccc(NC(=O)Nc2ccc(Oc3ncnc4ccn(C)c34)cc2)c1    0
Cc1ccc(C)c(NC(=O)NC2CCN(c3ccnc(Nc4ccc(F)cc4)n3)C2)c1 (centres unmarked)    28

Value sought for every listed compound: %Inh.
1. CN(C)Cc1ccc(-c2ccc3c(Nc4ccc(Oc5ccccn5)cc4)ccnc3c2)o1
2. O=c1[nH]cc(-c2ccc(N3CCOCC3)cc2)c2sc(-c3cn[nH]c3)cc12

Result:
[22, 4]

Values compiled from paper PMC5540273.
